Below, each entry is listed alongside its reported growth.
test system: SN12C renal; assay: NCI-60 one-dose screen, 48 h (100 = growth as untreated, 0 = no growth, -100 = all killed); details: 10 µM
Compounds without any hit were thinned out: in the full panel of roughly 83,000, 20% have a hit.
Supply the numeric figure in %, leaving out any unit text.

molecule	reportedMetric	numericResult
COc1cc(-c2ccc[nH]2)[nH]c1/C=C1\N=C(C)C(C(=O)NC(C)C)=C1C	growth	38.3
O=C(O)c1cc([N+](=O)[O-])ccc1Oc1ccccc1	growth	95.3
Cc1c2cnccc2c(C)c2c1c1cc(O)ccc1n2C(C)C	growth	-6.79

Incoming: Record `COc1ccc(C(=O)COc2cccc(/C=C3\Cc4ccccc4C3=O)c2)cc1` : what is its growth with SN12C renal?
Outgoing: 92.7

Incoming: What measured growth is associated with `COc1cc2cc(Oc3ccc(NC(=O)c4ccc(Cl)c(C(F)(F)F)c4)cc3)c(C)nc2cc1OC` on SN12C renal?
Outgoing: 24.1

Incoming: Hi! What's the reported growth for `C[N+]1(CCCCC[N+]2(C)CCCC2)CCCC1` on SN12C renal?
Outgoing: 62.4

Incoming: What is its growth for SN12C renal? Entry: `CC(C)C1=C(O)C2=C(C(=O)C1=O)[C@@]1(C)CCCC(C)(C)[C@@H]1CC2`
Outgoing: 81

Incoming: Form field: growth recorded for `CC(=O)N[C@H](C(=O)N[C@@H](CCCNC(=N)N)C(=O)N[C@@H](CCCCN)C(=O)N[C@@H](CCCNC(=N)N)C(=O)N[C@]1(C)CCC/C=C\CCC[C@@](C)(C(=O)N[C@@H](CC(C)C)C(=O)N[C@@H](CC(C)C)C(=O)N[C@@H](CCC(N)=O)C(=O)N[C@@H](CCC(=O)O)C(=O)N[C@@H](CCCNC(=N)N)C(=O)N[C@@H](CCC(=O)O)C(=O)N[C@@H](CC(C)C)C(=O)N[C@H](C(=O)N[C@@H](CCC(=O)O)C(N)=O)C(C)C)NC(=O)[C@H](CCCNC(=N)N)NC(=O)[C@H](CC(C)C)NC1=O)C(C)C` with SN12C renal (enter value)
Outgoing: 103

Incoming: What growth appears in the records for this molecule with SN12C renal? `O=S(=O)(NCCCNc1nccc(-c2cn(-c3ccccc3)nc2-c2ccc(Cl)c(O)c2)n1)c1ccccc1`
Outgoing: 67.2

Incoming: Given the entry COc1ccc(/C=C2\CCCC3=C2NC(N)=NC3c2ccc(OC)cc2)cc1 (stereo unspecified) , what growth was observed with SN12C renal?
Outgoing: 86.7

Incoming: API: value(readout= growth, system= SN12C renal, query= `COc1ccc(/C(C#N)=C/c2cccc(OC)c2OC)cc1` )
Outgoing: 89.8

Incoming: Reported growth for SN12C renal, given `O=C1/C=C/[C@@H](O)[C@@H]2C[C@@H](O)C[C@H]2/C=C/CCC[C@@H](C(F)(F)F)O1` ?
Outgoing: 90.3

Incoming: Item: `CCn1c2ccc(O)cc2c2c(C)c3c[n+](C)ccc3c(C)c21` Test system: SN12C renal Read-out: growth Value: ?
Outgoing: -32.6
